test system: SN12C renal; assay: NCI-60 one-dose screen, 48 h; conditions: 10 µM
About 83,000 compounds went through this panel and 20% of them were active in at least one assay; those are over-represented in the sample as a whole. Active and inactive are the calls of the source. The calls were made as follows: active = growth percent below 10; inactive = the rest.
Possible outcomes: 1.0 (active), 0.0 (inactive)

- molecule: "Nc1nnc(-c2c[nH]c3ccc(F)cc23)c(-c2c[nH]c3ncccc23)n1"
  class.label: 0.0
- molecule: "CC(=O)Nc1ccc(-c2cn(-c3cccc(C(=O)Nc4cc(CN5CCOCC5)cc(C(F)(F)F)c4)c3)nn2)cn1"
  class.label: 1.0
- molecule: "O=C(c1ccc(Cl)cc1)C1[C@H](c2ccccc2Br)[C@@H](c2ccccc2)NC12C(=O)Nc1ccc(Cl)cc12 (some centres undefined)"
  class.label: 1.0
- molecule: "Cc1ccc2nc(COc3ccc(C(=O)NNC(=S)NC(=O)c4ccccc4)cc3)[nH]c2c1"
  class.label: 0.0
- molecule: "O=C1Nc2cc(Cl)ccc2/C1=C/c1cccc(OCc2ccc(Br)cc2F)c1"
  class.label: 0.0
- molecule: "CN1CCN(c2ccc(Nc3nc(NCCCNC(=O)c4ccc(F)cc4)c4sccc4n3)cc2)CC1"
  class.label: 0.0
- molecule: "Cc1ccc(C(=O)Nc2ccc(-n3c(C)nc4c(cnn4-c4ccccc4)c3=O)cc2)cc1"
  class.label: 0.0
- molecule: "N#Cc1ccc(-c2nn(-c3ccc(C(=O)O)cc3)cc2CNc2cc(Cl)cc(C(F)(F)F)c2)cc1"
  class.label: 0.0
- molecule: "COc1cc(C2CC(c3ccc(C)cc3)=Nc3c(N)nc(N)nc3N2)ccc1Oc1nc(Nc2ccc(F)cc2)nc(N(C)C)n1 (centres undefined)"
  class.label: 0.0

###

tested on: A498 renal; assay: NCI-60 one-dose screen, 48 h (100 = growth as untreated, 0 = no growth, -100 = all killed); conditions: 10 µM
About 83,000 compounds went through this panel and 20% of them were active in at least one assay; those are over-represented in the sample as a whole.
Label key: Met means growth under 90%; Not met means growth of 90% or more.

- compound: "CN1C/C(=C\\c2ccc(O)cc2O)c2[o+]c3cc(O)ccc3cc2C1"
  target.entity: "A498 renal"
  class.label: "Not met"
- compound: "NS(=O)(=O)c1ccc(NC(=O)CSc2ccc(-c3ccccc3)nn2)c(Br)c1"
  target.entity: "A498 renal"
  class.label: "Not met"
- compound: "CC1(c2ccccc2)NC(=O)N(CC(=O)Nc2ccc(C(=O)/C=C/c3ccc(Cl)cc3)cc2)C1=O (configuration not stated)"
  target.entity: "A498 renal"
  class.label: "Met"
- compound: "COc1ccc2c3nc4cc(C)c(C)cc4nc3n(CCN(C)C)c2c1"
  target.entity: "A498 renal"
  class.label: "Met"
- compound: "COc1ccc(C(=O)Nc2sc3c(c2C#N)CCC(=O)C3)cc1C(F)(F)F"
  target.entity: "A498 renal"
  class.label: "Met"
- compound: "O=c1oc2ccc(-c3ccc(F)cc3F)cc2c(=O)n1-c1ccc(F)cc1"
  target.entity: "A498 renal"
  class.label: "Met"
- compound: "CC(C)C1=C[C@@]23CC[C@@H]4[C@](C)(CCC[C@]4(C)C(=O)NCc4ccccc4)[C@H]2C[C@@H]1[C@H]1C(=O)CCC(=O)[C@H]13"
  target.entity: "A498 renal"
  class.label: "Not met"
- compound: "COc1csc(/C=N/NC(=O)c2[nH]c3ccc(Br)cc3c2-c2ccccc2)c1"
  target.entity: "A498 renal"
  class.label: "Met"
- compound: "CO[C@@H]1CSSC1Cn1nc(-c2ccc(Oc3ccccc3)cc2)c2c(N)ncnc21 (some centres not stated)"
  target.entity: "A498 renal"
  class.label: "Met"
- compound: "NC1=NC(c2ccccc2Cl)N=C(Nc2nn[nH]n2)N1 (configuration not stated)"
  target.entity: "A498 renal"
  class.label: "Not met"
- compound: "COC(=O)CC1CC1C1Cc2c(nc(N(C)S(C)(=O)=O)nc2C(C)C)-c2ccc(F)cc21 (configuration not stated)"
  target.entity: "A498 renal"
  class.label: "Not met"
- compound: "NC(=Nc1ccc(OCCCCCCCCn2ccnn2)cc1)c1ccccc1"
  target.entity: "A498 renal"
  class.label: "Not met"
- compound: "O=C1Nc2ccc(F)cc2/C1=C/c1cccc(OCc2ccccc2)c1"
  target.entity: "A498 renal"
  class.label: "Met"
- compound: "CC(=O)c1cc(C(=O)N2c3ccccc3Sc3ccccc32)n2ccc(C)cc12"
  target.entity: "A498 renal"
  class.label: "Met"
- compound: "O=C(CSc1nnc(-c2ccc3nc(-c4ccc(Cl)cc4)[nH]c3c2)o1)Nc1ccc(Cl)cc1"
  target.entity: "A498 renal"
  class.label: "Met"
- compound: "C=C(c1ccc(OC)c(N)c1)c1cc(C)nc2ccccc12"
  target.entity: "A498 renal"
  class.label: "Not met"
- compound: "CC(=O)Oc1ccccc1C(=O)Oc1ccc(C(=O)/C=C/c2ccncc2)cc1"
  target.entity: "A498 renal"
  class.label: "Met"
- compound: "N#Cc1ccc(-c2nn(-c3ccc(C(=O)O)cc3)cc2CNc2ccc(Cl)cc2)cc1"
  target.entity: "A498 renal"
  class.label: "Not met"
- compound: "O=C(Nc1ccc(Cl)c(C(F)(F)F)c1)c1cncc(C#Cc2cnc3ccc(N4CCOCC4)nn23)c1"
  target.entity: "A498 renal"
  class.label: "Met"
- compound: "O=C(Cn1cc(CSc2nnc3oc4ccccc4n23)nn1)Nc1ccc(Br)cc1"
  target.entity: "A498 renal"
  class.label: "Not met"
- compound: "CC1=C2C(=C[C@@](C)(COCOCCCl)[C@@H]2O)C(=O)[C@](C)(O)C12CC2"
  target.entity: "A498 renal"
  class.label: "Met"
- compound: "CC(=C(c1ccc(OCCN2CCCCCC2)cc1)c1ccc(OCCN2CCCCCC2)cc1)c1ccc(Cl)cc1"
  target.entity: "A498 renal"
  class.label: "Met"
- compound: "COc1cc2oc(-c3cccc(C(=O)Nc4ccc(Cl)cc4)c3)cc(=O)c2c(OCCNC(=O)CNC(=O)OC(C)(C)C)c1OC"
  target.entity: "A498 renal"
  class.label: "Not met"
- compound: "O=C(Cc1ccc2c(c1)CN(C1CCC(=O)NC1=O)C2=O)NCc1cccc2ccccc12 (configuration not stated)"
  target.entity: "A498 renal"
  class.label: "Met"
- compound: "Cc1cc(C)nc(SCC(=O)Nc2ccc(S(N)(=O)=O)cc2)n1"
  target.entity: "A498 renal"
  class.label: "Not met"
- compound: "O=C(c1ccc(O)cc1)C1[C@H](c2ccc(Br)cc2)[C@@H](c2ccccc2)NC12C(=O)Nc1ccc(Br)cc12 (some centres not stated)"
  target.entity: "A498 renal"
  class.label: "Met"
- compound: "O=C(Nc1ccc(I)cc1)Nc1nc2ccc([N+](=O)[O-])cc2s1"
  target.entity: "A498 renal"
  class.label: "Met"
- compound: "O=C(CN1CCN(c2ncnc3c2cnn3-c2ccccc2)CC1)Nc1nncs1"
  target.entity: "A498 renal"
  class.label: "Met"
- compound: "O=c1[nH][nH]c(Nc2ccccc2)c1N=Nc1ccc(F)cc1"
  target.entity: "A498 renal"
  class.label: "Not met"
- compound: "CC(C)(C)c1ccc(NCc2cn(-c3ccc(C(=O)O)cc3)nc2-c2ccc(C#N)cc2)cc1"
  target.entity: "A498 renal"
  class.label: "Met"
- compound: "O=C1CCC(N2Cc3cc(NC(=O)COc4ccccc4)ccc3C2=O)C(=O)N1 (configuration not stated)"
  target.entity: "A498 renal"
  class.label: "Met"
- compound: "O=C(COc1ccc(NC(=O)Nc2ccc(Cl)cc2)cc1)N=Nc1c(O)[nH]c2ccc([N+](=O)[O-])cc12"
  target.entity: "A498 renal"
  class.label: "Not met"
- compound: "CCCCCCCCCCCCCCCCCCCC(=O)NCCc1c[nH]c2ccc(OC(=O)NOCCOCCOCCOCCOCCOCCOCCOCCOCCOCCOCCOCCOCCOCCOCCOCCOCCOCCOCCOCCOCCOCCOC)cc12"
  target.entity: "A498 renal"
  class.label: "Met"
- compound: "O=c1[nH]c2ccccc2cc1CSc1ccc(Nc2nccc(-c3ccc(Cl)cc3)n2)cc1"
  target.entity: "A498 renal"
  class.label: "Met"
- compound: "CN(C)c1cccc2c(S(=O)(=O)Nc3cccc(-c4csc(NC(=O)CCCCCN5CCN(c6cc7c(cc6F)C(=O)N(C6CCC(=O)NC6=O)C7=O)CC5)n4)c3)cccc12 (configuration not stated)"
  target.entity: "A498 renal"
  class.label: "Not met"
